# Tested on: DMS 273
# Experiment summary: in vitro small cell lung cancer cell growth inhibition (NCI screen)
# Format: cell-based
# Condition set: Homo sapiens, read-out: cytotoxicity log GI50 (converted)
Rule: GI50 below 20 µM gives Satisfied. Equal to or above 20 µM gives Not satisfied.

**Q:** Answer whether the compound Cc1ccc(Cn2c(C)nc3c2C(=O)c2ccccc2C3=O)cc1 [Compound 17] has GI50 strictly less than 20 µM
**A:** Satisfied

**Q:** Given the entry O=C1c2ccccc2C(=O)c2[nH]c(Cc3ccccc3F)nc21 [Compound 4b] , would its reported GI50 be below 20 µM?
**A:** Not satisfied

**Q:** is_below(GI50, 20 µM) for NC1=C(NC(=O)Cc2ccc(F)cc2)C(=O)c2ccccc2C1=O [Compound 3c] ?
**A:** Not satisfied

**Q:** In plain terms, does Cc1nc2c(n1CC(C)C)C(=O)c1ccccc1C2=O [Compound 7] come in under 20 µM for GI50?
**A:** Not satisfied

**Q:** Determine if COc1ccc(Cn2c(C)nc3c2C(=O)c2ccccc2C3=O)cc1 [Compound 18] shows GI50 strictly lower than 20 µM.
**A:** Satisfied

**Q:** Quick check: GI50 of Cc1nc2c(n1Cc1ccc(F)cc1)C(=O)c1ccccc1C2=O [Compound 19] under 20 µM?
**A:** Satisfied

**Q:** Here's an entry: Cc1nc2c(n1Cc1ccc(Cl)cc1)C(=O)c1ccccc1C2=O [Compound 20] . Is its GI50 below 20 µM?
**A:** Satisfied

**Q:** Say whether its GI50 is strictly beneath 20 µM. Entry: CCn1c(C)nc2c1C(=O)c1ccccc1C2=O [Compound 5]
**A:** Satisfied

**Q:** Does this compound meet the criterion GI50 < 20 µM? CC(=O)NC1=C(NCCN(C)C)C(=O)c2ccccc2C1=O [Compound 39]
**A:** Satisfied

**Q:** Report whether reported GI50 is lower than 20 µM (strictly) for CCC(C)n1c(C)nc2c1C(=O)c1ccccc1C2=O (centres unmarked) [Compound 6]
**A:** Not satisfied

**Q:** Strictly below 20 µM in GI50? CCCC(C)n1c(C)nc2c1C(=O)c1ccccc1C2=O (centres unmarked) [Compound 9]
**A:** Satisfied

**Q:** Here's an entry: CCC(C)NC1=C(NC(C)=O)C(=O)c2ccccc2C1=O (centres unmarked) [Compound 30] . Is its GI50 below 20 µM?
**A:** Not satisfied

**Q:** is_below(GI50, 20 µM) for CCC(C)(C)n1c(C)nc2c1C(=O)c1ccccc1C2=O [Compound 12] ?
**A:** Satisfied

**Q:** Hello, I'm reviewing records and need to know if GI50 of Cc1nc2c(n1C(C)(C)C)C(=O)c1ccccc1C2=O [Compound 8] is below 20 µM. Could you check?
**A:** Not satisfied

**Q:** Quick check: does CCC(C)Cn1c(C)nc2c1C(=O)c1ccccc1C2=O (centres unmarked) [Compound 13] have GI50 under 20 µM?
**A:** Satisfied

**Q:** Here's an entry: CC(=O)NC1=C(NCC(C)C)C(=O)c2ccccc2C1=O [Compound 31] . Is its GI50 below 20 µM?
**A:** Satisfied

**Q:** Just wondering, is GI50 of CCn1c(Cc2ccc(F)cc2)nc2c1C(=O)c1ccccc1C2=O [Compound 66] below 20 µM?
**A:** Satisfied

**Q:** Is it true that GI50 reported for CCC(CC)n1c(C)nc2c1C(=O)c1ccccc1C2=O [Compound 10] is less than 20 µM?
**A:** Not satisfied

**Q:** Find out if reported GI50 for Cc1nc2c(n1CCC(C)C)C(=O)c1ccccc1C2=O [Compound 11] is less than 20 µM
**A:** Satisfied

Values were extracted from patent US5789431A.
